MEASUREMENT KIND: melting point

MOLECULE: O=C1CCc2cc(OCc3ccccc3)ccc21
melting point: 105 to 106 °C

QUERY: Kindly indicate its recorded melting point. Item: Cn1nc(-c2ccc(Cl)cc2Cl)cc1OC(F)F
RESULT: 35 °C

QUERY: Give the value of melting point reported for the following: CNC(C)CN1CCc2c(c(=O)oc3cc(C)c(NC(C)=O)cc23)C1 (stereo not given)
RESULT: 187 to 188 °C

QUERY: Retrieve melting point measured for COC(=O)c1ccc(-c2nc(C(N)=O)c3[nH]c(=O)n(-c4ccccc4OC)c3n2)cc1 and print it.
RESULT: 286 to 290 °C

QUERY: Answer with the recorded melting point for the molecule listed here: CCCc1nn(C)c2c(=O)[nH]c(-c3cc(CCCN)ccc3OCC)nc12
RESULT: 115 to 117 °C

QUERY: Answer with the recorded melting point of Nc1nnc(-c2cc(F)c(F)c(F)c2O)s1 only.
RESULT: 309 °C

----------
Entries and their melting point values follow.

# annotated cases, reported melting point shown
MOLECULE: N=C1NC(=O)C(c2ccccc2)S1 (stereo not given)
RESULT: 249 to 252 °C
--
MOLECULE: O=C(O)c1ccc2c(c1)Sc1ccccc1N=C2N1CCOCC1
RESULT: 267 to 269 °C
--
MOLECULE: O=C1CCc2cc(N/C(=C3\C(=O)Nc4ccc([N+](=O)[O-])cc43)c3ccccc3)ccc2N1
RESULT: > 300 °C
--
MOLECULE: O=C(N[C@H]1CCN(C(=O)c2cc(Cl)cc(Cl)c2)[C@H](Cc2ccccc2)C1)c1cc2ccccc2[nH]1 (relative stereo)
RESULT: 254 °C

QUERY: Fill in melting point for record CN(C)C=C(C=O)c1cccc(F)c1
RESULT: 42 to 43.5 °C

QUERY: Determine from records and report melting point for CC(C)(O)C[C@@H]1CO[C@](C)([C@H]2CC[C@H]3C(=O)CCC[C@@]32C)C1
RESULT: 82 °C

QUERY: Item COc1cc(N2CCN(C)CC2)ccc1-c1nc2c(N[C@H]3[C@@H](C(N)=O)[C@@H]4C=C[C@H]3C4)c(Br)cnc2[nH]1 : provide melting point
RESULT: 185 to 195 °C

----------
MEASUREMENT KIND: melting point

Study these solved cases before continuing.
COMPOUND: OC(c1ccc(F)cc1)C1CC2CCN1CC2 (stereo unspecified)
MEASUREMENT KIND: melting point
RESULT: 69 to 70 °C
--
COMPOUND: C#CCN=c1sc2cc(OC(F)(F)F)ccc2n1CC(=O)c1ccc(C)cc1
MEASUREMENT KIND: melting point
RESULT: 98 to 100 °C
--
COMPOUND: O=[N+]([O-])OCC#CCO
MEASUREMENT KIND: melting point
RESULT: 107 to 110 °C
--
COMPOUND: CCCCS(=O)(=O)Nc1cc(C(=O)Nc2ccccc2)ccc1OC
MEASUREMENT KIND: melting point
RESULT: 182 to 183 °C
--
COMPOUND: Cc1c(C)c2c(c(C)c1NC(=O)OCC(Cl)(Cl)Cl)C(c1ccc(C(C)C)cc1)CO2 (stereo unspecified)
MEASUREMENT KIND: melting point
RESULT: 137 to 140 °C

QUERY: Quick one: give measured melting point for CC(C)CCOc1c(-c2ccc(S(N)(=O)=O)cc2)cnn(CC(F)(F)F)c1=O
RESULT: 123 to 124 °C

QUERY: Recall and state the measured melting point for CN1CCCC(Nc2ccnc3cc(Cl)ccc23)C1 (racemic) .
RESULT: 149 to 150 °C

QUERY: Determine from records and report melting point for O=C(O)CNC(=O)c1ccc(OCc2ccccc2)cc1OCc1ccccc1
RESULT: 168 to 169 °C
